The measured values listed here are drawn from patent US5541208A.

Collected IC50 values appear next to each entry.
- targetEntity: maxi-K channels from bovine aortic smooth muscle (Bos taurus)
- Construct: membrane patches excised from cultured bovine aortic smooth muscle cells; endogenous in cells
- Sequence (Q28204 whole entry): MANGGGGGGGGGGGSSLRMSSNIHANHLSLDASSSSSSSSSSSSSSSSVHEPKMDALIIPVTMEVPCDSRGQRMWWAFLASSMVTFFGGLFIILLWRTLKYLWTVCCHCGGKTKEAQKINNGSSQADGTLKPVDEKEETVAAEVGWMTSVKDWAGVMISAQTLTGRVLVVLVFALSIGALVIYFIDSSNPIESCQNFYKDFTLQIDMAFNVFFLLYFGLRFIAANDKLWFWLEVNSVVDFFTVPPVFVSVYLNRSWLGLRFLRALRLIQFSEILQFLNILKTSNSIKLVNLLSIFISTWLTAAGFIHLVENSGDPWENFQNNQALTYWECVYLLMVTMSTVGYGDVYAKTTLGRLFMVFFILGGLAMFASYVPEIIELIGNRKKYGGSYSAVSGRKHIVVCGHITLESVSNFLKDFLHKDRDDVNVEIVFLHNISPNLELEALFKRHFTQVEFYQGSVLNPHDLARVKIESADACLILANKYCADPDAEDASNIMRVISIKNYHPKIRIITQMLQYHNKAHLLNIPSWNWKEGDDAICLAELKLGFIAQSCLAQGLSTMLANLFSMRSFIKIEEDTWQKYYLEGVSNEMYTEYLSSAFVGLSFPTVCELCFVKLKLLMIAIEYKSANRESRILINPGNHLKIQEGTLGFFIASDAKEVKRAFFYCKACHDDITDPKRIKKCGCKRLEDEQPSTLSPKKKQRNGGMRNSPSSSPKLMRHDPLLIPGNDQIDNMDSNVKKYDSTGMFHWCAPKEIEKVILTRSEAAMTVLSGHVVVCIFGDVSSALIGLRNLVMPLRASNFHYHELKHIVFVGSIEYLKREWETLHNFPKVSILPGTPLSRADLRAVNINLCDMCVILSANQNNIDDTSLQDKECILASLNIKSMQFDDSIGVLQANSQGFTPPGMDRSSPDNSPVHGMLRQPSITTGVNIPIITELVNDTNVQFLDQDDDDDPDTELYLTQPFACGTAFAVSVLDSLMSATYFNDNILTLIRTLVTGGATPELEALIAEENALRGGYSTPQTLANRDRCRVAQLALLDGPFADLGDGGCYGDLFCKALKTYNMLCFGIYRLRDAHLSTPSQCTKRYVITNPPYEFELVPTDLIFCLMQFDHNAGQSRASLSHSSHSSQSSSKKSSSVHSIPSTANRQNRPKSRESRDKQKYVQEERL
- procedureText: Patch clamp recording of maxi-K channel currents in excised inside-out membrane patches
- measurementConditions: table of Example 4; read-out: 50% CHANNEL BLOCK

>  <compound>
CC(C)=CCc1cccc2[nH]c3c(c12)CC1CCC2(O)C45OC4C4OC(C=C(C)C)OC(C)(C)C4OC5=CCC2(C)C31C (stereo not shown)

>  <targetEntity>
maxi-K channels from bovine aortic smooth muscle (Bos taurus)

>  <IC50>
< 10 nM

$$$$
>  <compound>
CC(C)(O)C1CC(O)C2(C(=O)O)C(CCC3(C)C2CCC2Cc4c([nH]c5ccccc45)C23C)O1 (stereo not shown) [Compound D, hydroxypaspalinic acid]

>  <targetEntity>
maxi-K channels from bovine aortic smooth muscle (Bos taurus)

>  <IC50>
~1000 nM

$$$$
>  <compound>
CC1(C)ON=C2C=C3C(CCC4(C)C3(O)CCC3Cc5c([nH]c6ccccc56)C34C)OC21 (stereo not shown)

>  <targetEntity>
maxi-K channels from bovine aortic smooth muscle (Bos taurus)

>  <IC50>
~10 nM

$$$$
>  <compound>
COC(=O)C12C(O)CC(C(C)(C)O)OC1CCC1(C)C2CCC2Cc3c([nH]c4ccccc34)C21C (stereo not shown) [Compound E, methyl hydroxypaspalinate]

>  <targetEntity>
maxi-K channels from bovine aortic smooth muscle (Bos taurus)

>  <IC50>
> 10000 nM

$$$$
